Carbonic anhydrase 1 (Homo sapiens, UniProt P00915): recorded pKi for assorted compounds
Sequence (P00915 whole entry): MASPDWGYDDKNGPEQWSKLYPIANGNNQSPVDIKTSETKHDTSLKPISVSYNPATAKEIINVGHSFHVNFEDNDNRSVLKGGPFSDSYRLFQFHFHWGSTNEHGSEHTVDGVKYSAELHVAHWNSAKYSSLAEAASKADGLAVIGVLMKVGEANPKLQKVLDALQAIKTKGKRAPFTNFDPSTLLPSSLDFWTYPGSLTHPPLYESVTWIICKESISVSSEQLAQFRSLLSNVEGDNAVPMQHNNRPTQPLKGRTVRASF
Note on pKi: it is the negative log10 of concentration, concentration in mol/L.

These solved cases illustrate the format of a correct answer.
{"columns": ["compound structure string", "pKi"],
 "data": [
  ["Cc1cc(C)[n+](CC(=O)Nc2nnc(S(N)(=O)=O)s2)c(C)c1", 6.52],
  ["Cc1cc(C)[n+](CC(=O)Nc2ccc(S(N)(=O)=O)cc2I)c(C)c1", 6.09],
  ["CCc1cc(-c2ccccc2)cc(CC)[n+]1CC(=O)Nc1ccccc1S(N)(=O)=O", 4.56]
]}

Pending compound:
Return pKi for the following compound: Cc1cc(-c2ccccc2)cc(C)[n+]1CC(=O)Nc1nnc(S(N)(=O)=O)s1.[O-][Cl+3]([O-])([O-])[O-]
6.69

----------
measured on: Carbonic anhydrase 1 (Homo sapiens, UniProt P00915)
# note: boundary value 0.6 µM maps to False; Ki below it maps to True

Use these answered entries as a reference point.
{"columns": ["compound structure string", "cat"],
 "data": [
  ["Cc1cc(C)[n+](CC(=O)Nc2ccc(S(=O)(=O)/N=c3/sc(S(N)(=O)=O)nn3C)cc2)c(C)c1", "True"],
  ["Cc1cc(-c2ccccc2)cc(C)[n+]1CC(=O)OCCOc1ccc2nc(S(N)(=O)=O)sc2c1", "True"],
  ["Cc1cc(-c2ccccc2)cc(C)[n+]1CC(=O)Nc1cc(Cl)c(S(N)(=O)=O)cc1S(N)(=O)=O", "True"]
]}

Let's switch to this molecule now.
Say whether its Ki is strictly beneath 0.6 µM. Entry: Cc1cc(-c2ccccc2)cc(C)[n+]1CC(=O)Nc1ccc(S(=O)(=O)Nc2ccc(S(N)(=O)=O)cc2)cc1
True

----------
Sequence of the target: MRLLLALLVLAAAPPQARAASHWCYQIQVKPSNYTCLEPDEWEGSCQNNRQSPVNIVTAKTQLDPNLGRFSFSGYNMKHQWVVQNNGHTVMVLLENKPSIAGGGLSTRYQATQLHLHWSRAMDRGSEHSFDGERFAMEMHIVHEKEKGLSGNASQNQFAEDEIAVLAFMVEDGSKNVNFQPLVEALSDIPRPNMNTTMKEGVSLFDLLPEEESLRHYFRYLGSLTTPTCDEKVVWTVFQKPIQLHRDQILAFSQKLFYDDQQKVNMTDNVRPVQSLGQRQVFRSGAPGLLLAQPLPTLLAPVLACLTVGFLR
property name: Ki (nM)
Write the value in nM as a bare number.

Some solved cases for reference:
{"columns": ["compound structure string", "measured result"],
 "data": [
  ["CCc1cc(-c2ccccc2)cc(CC)[n+]1CC(=O)Nc1ccccc1S(N)(=O)=O", 335],
  ["Cc1cc(-c2ccccc2)cc(C)[n+]1CC(=O)Oc1ccc2nc(S(N)(=O)=O)sc2c1", 17],
  ["CC(C)c1cc(-c2ccccc2)cc(C(C)C)[n+]1CC(=O)NCc1ccc(S(N)(=O)=O)cc1", 75],
  ["Cc1cc(-c2ccccc2)cc(C)[n+]1CC(=O)Nc1ccc(S(N)(=O)=O)cc1F", 36],
  ["Cc1cc(-c2ccccc2)cc(C)[n+]1CC(=O)Nc1ccc2nc(S(N)(=O)=O)sc2c1", 19]
]}

Give me measured Ki, please, for this compound: Cc1cc(C)[n+](CC(=O)Nc2nccc(Nc3ccc(S(N)(=O)=O)cc3)n2)c(C)c1
69

Output measured Ki for this item: Cc1cc(C)[n+](CC(=O)Nc2ccc3nc(S(N)(=O)=O)sc3c2)c(C)c1
50

Please give measured Ki of the following entry: CC(C)c1cc(-c2ccccc2)cc(C(C)C)[n+]1CC(=O)Nc1ccc(S(=O)(=O)Nc2ccc(S(N)(=O)=O)cc2)cc1
73

Quote Ki reported for Cc1cc(C)[n+](CC(=O)NCc2ccc(S(N)(=O)=O)cc2)c(C)c1 please.
80

Provide Ki value for the following compound: Cc1cc(-c2ccccc2)cc(C)[n+]1CC(=O)NCc1ccc(S(N)(=O)=O)cc1
50
